Tested on: Escherichia coli
Assay: Induction of DNA cleavage in Escherichia coli at 1 ug/ml after 2 hr by agarose gel electrophoretic analysis
Active and inactive are the calls of the source. The rule behind the calls is not given here.
Observable: Activity

INSERT INTO results (molecule, reported_value) VALUES
  ('COc1ccc2[nH]c(-c3ccccc3)c(C(c3c(-c4ccccc4)[nH]c4ccc(C)cc34)C3C(=O)NN=C3C)c2c1 (centres undefined)', 'Active'),
  ('CC1=NNC(=O)C1C(c1c(-c2ccccc2)[nH]c2ccccc12)c1c(-c2ccccc2)[nH]c2ccc(Cl)cc12 (centres undefined)', 'Active'),
  ('COc1ccc2[nH]c(-c3ccccc3)c(C(c3c(-c4ccccc4)[nH]c4ccc(Cl)cc34)C3C(=O)NN=C3C)c2c1 (centres undefined)', 'Active'),
  ('CC1=NNC(=O)C1C(c1c[nH]c2ccccc12)c1c(-c2ccccc2)[nH]c2ccc(C)cc12 (centres undefined)', 'Active');
